testDetails: Pharmacokinetic study, 4ET-03-009 at 10 mg/kg oral
Assay type: in vivo, CD-1 male mice
setupConditions: male, CD-1, mouse, plasma, oral, 10 mg/kg, individual animals, read-out: Clast
experimentalReadout: concentration at 24 hours

>>> measuredresult("Cc1cc(Nc2cc(NC(=O)C3CC3)ncn2)c(=O)n2c1C(=O)NC21CCOCC1 [Compound 4ET-03-009]")
"1.64 ng/mL"

----------
testDetails: Pharmacokinetic study, 4ET-01-021 with IV and PO dosing
Type: in vivo, CD-1 male mice
setupConditions: male, CD-1, mouse, plasma, po; orally dosed at 10 mg/kg, mean of 3 animals; read-out: F (oral bioavailability)
Description: 4ET-01-021 was dissolved in 10% dimethylacetamide (DMA)/90% propylene glycol (PG) for oral dosing and 10% DMI (dimethyl isosorbide)/15% EtOH (ethanol)/35% PG (propylene glycol)/40% NS (normal saline) for IV dosing. CD-1 male mice were dosed with 4ET-01-021 at 1.0 mg/kg (IV), 3.0 mg/kg (PO), or 10.0 mg/kg (PO). Plasma was collected at indicated timepoints and plasma concentration of 4ET-01-021 was measured using liquid chromatography-mass spectrometry/mass spectrometry (LC-MS/MS). […]
experimentalReadout: bioavailability

>>> measuredresult("CCC1=CC2(CCC1)NC(=O)c1c(C)cc(Nc3cc(N)ncn3)c(=O)n12 (stereo not shown)")
"49.6%"

----------
testDetails: Pharmacokinetic study, 4ET-03-009 at 10 mg/kg oral
Format: in vivo, CD-1 male mice
setupConditions: male, CD-1, mouse, plasma, po, 10 mg/kg, Mean (n = 3), read-out: AUClast
experimentalReadout: AUC(0-t)

>>> measuredresult("Cc1cc(Nc2cc(NC(=O)C3CC3)ncn2)c(=O)n2c1C(=O)NC21CCOCC1 [Compound 4ET-03-009]")
"1610 ng·h/mL"

----------
studySystem: MNK2 (Homo sapiens, UniProt Q9HBH9)
Sequence (Q9HBH9 whole entry): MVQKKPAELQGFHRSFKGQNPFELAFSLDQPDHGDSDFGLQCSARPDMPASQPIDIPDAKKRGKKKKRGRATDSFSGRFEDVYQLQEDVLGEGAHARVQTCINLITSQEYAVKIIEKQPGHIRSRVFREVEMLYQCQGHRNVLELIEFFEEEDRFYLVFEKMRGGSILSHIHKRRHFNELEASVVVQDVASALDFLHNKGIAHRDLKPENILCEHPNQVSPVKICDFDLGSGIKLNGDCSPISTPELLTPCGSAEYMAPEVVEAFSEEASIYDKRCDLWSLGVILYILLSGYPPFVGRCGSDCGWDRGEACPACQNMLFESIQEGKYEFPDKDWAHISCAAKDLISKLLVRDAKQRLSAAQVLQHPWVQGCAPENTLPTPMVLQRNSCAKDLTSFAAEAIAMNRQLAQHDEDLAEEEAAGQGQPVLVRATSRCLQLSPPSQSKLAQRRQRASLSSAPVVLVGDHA
testDetails: MNK2 substrate phosphorylation assay
setupConditions: recombinant human kinase
pIC50: −log10 of the molar value.
experimentalReadout: pIC50

>>> measuredresult("Cc1cc(Nc2cc(N)ncn2)c(=O)n2c1C(=O)NC21Cc2ccccc2[C@@H]1F (single isomer, unassigned) [Compound 4ET-01-010A]")
8.03
>>> measuredresult("Cc1cc(Nc2cc(NCCN3CCOCC3)ncn2)c(=O)n2c1C(=O)NC21CCCCC1 [Compound 4ET-02-005]")
7.98
>>> measuredresult("Cc1cc(Nc2cc(NCCNS(C)(=O)=O)ncn2)c(=O)n2c1C(=O)NC21CCCCC1 [Compound 4ET-02-004]")
8.68
>>> measuredresult("Cc1cc(Nc2cc(NC(=O)C3CC3)ncn2)c(=O)n2c1C(=O)NC21Cc2ccccc2[C@@H]1F (single isomer, unassigned) [Compound 4ET-03-052A]")
9.30
>>> measuredresult("Cc1cc(Nc2cc(NC(=O)C3CC3)ncn2)c(=O)n2c1C(=O)NC21CCC(O)CC1 (stereo not drawn) [Compound 4ET-03-015]")
8.85
>>> measuredresult("Cc1cc(Nc2cc(NC(=O)C3CC3)ncn2)c(=O)n2c1C(=O)NC21Cc2ccccc2[C@@H]1F (single isomer, unassigned) [Compound 4ET-03-052B]")
8.79

----------
testDetails: Pharmacokinetic study, 4ET-03-009 at 10 mg/kg oral
Type: in vivo, CD-1 male mice
setupConditions: male, CD-1, mouse, plasma, oral, 10 mg/kg, 4 hours, mean n = 3, read-out: Plasma Conc. Mean
experimentalReadout: concentration at 4 h (ng/mL)

>>> measuredresult("Cc1cc(Nc2cc(NC(=O)C3CC3)ncn2)c(=O)n2c1C(=O)NC21CCOCC1")
132

----------
studySystem: protein kinase G 2 (PKG2) (Homo sapiens)
Sequence (Q13237 whole entry): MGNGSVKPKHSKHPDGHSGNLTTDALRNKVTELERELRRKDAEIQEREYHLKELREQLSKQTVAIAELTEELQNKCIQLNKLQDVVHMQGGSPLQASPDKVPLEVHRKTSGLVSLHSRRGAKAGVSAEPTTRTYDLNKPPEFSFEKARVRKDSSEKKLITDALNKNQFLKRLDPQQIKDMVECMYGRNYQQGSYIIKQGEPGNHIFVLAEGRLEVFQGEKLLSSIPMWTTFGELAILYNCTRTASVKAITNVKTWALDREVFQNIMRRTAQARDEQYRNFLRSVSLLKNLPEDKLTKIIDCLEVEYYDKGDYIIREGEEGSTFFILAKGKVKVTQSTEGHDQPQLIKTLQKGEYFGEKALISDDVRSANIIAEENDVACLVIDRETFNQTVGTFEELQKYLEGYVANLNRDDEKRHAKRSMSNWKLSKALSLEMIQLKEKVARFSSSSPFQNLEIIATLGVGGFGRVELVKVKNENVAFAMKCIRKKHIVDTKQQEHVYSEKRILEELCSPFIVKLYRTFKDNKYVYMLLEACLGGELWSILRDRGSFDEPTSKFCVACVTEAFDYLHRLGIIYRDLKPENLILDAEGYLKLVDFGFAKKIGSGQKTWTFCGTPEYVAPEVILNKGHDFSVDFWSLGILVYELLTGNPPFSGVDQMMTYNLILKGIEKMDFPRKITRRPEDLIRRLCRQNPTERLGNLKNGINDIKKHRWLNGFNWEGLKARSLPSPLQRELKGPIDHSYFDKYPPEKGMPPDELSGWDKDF
testDetails: Off-target kinase screen PKG2
Assay type: biochemical
setupConditions: 1 μM test compound
experimentalReadout: remaining activity at 1 µM

>>> measuredresult("Cc1cc(Nc2cc(N)ncn2)c(=O)n2c1C(=O)NC21CCC(O)CC1 (stereo not drawn)")
"100%"
>>> measuredresult("Cc1cc(Nc2cc(NC(=O)C3CC3)ncn2)c(=O)n2c1C(=O)NC21CCC(O)CC1 (stereo not drawn)")
"100%"
>>> measuredresult("Cc1cc(Nc2cc(NC(=O)C3CC3)ncn2)c(=O)n2c1C(=O)NC21CCCC1")
"100%"
>>> measuredresult("Cc1cc(Nc2cc(NCCO)ncn2)c(=O)n2c1C(=O)NC21CCCCC1")
"99%"
>>> measuredresult("Cc1cc(Nc2cc(NC(=O)C3CC3)ncn2)c(=O)n2c1C(=O)NC21CCOCC1")
"99%"
>>> measuredresult("Cc1cc(Nc2cc(NCCNS(C)(=O)=O)ncn2)c(=O)n2c1C(=O)NC21CCCCC1")
"100%"

----------
Some compounds, each annotated with its measured IC50.
Test system: eIF4E phosphorylation at Serine 209 in the human embryonic kidney (HEK) 293 cell line
testDetails: eIF4E phosphorylation in HEK 293 cells (fluorescent plate reader)
Format: cell-based
setupConditions: Homo sapiens, HEK293, 2 h, eIF4E phosphorylation at Serine 209, 2 hours exposure
Protocol: The ability of MNK inhibitors described herein to inhibit eIF4E phosphorylation at Serine 209 in the human embryonic kidney (HEK) 293 cell line was tested by exposing the cells to compound for 2 hours and then measuring eIF4E phosphorylation with a phosphorylation-specific antibody in a fluorescent plate reader. […] Following washing, cells were then exposed to secondary antibody conjugated to alexa-fluor 488 and then visualized on a Syngergy HTX plate reader. […]
experimentalReadout: IC50 (nM)

>>> measuredresult("Cc1cc(Nc2cc(NC(=O)C3CC3)ncn2)c(=O)n2c1C(=O)NC21CCC(O)CC1 (stereo not drawn) [Compound 4ET-03-015]")
2.7
>>> measuredresult("Cc1cc(Nc2cc(NC(=O)C3CC3)ncn2)c(=O)n2c1C(=O)NC21Cc2ccc(Cl)cc2C1 (stereo not drawn) [Compound 4ET-03-054]")
8.6
>>> measuredresult("CCC1=CC2(CCC1)NC(=O)c1c(C)cc(Nc3cc(NC(=O)C4CC4)ncn3)c(=O)n12 (stereo not drawn) [Compound 4ET-03-039]")
2.6

----------
testDetails: Pharmacokinetic study, 4ET-03-009 at 20 mg/kg oral
Type: in vivo, CD-1 male mice
setupConditions: male, CD-1, mouse, plasma, oral, 20 mg/kg, 1 hours, read-out: Plasma Conc. (per mouse n = 3)
experimentalReadout: concentration at 1 hours (ng/mL)

>>> measuredresult("Cc1cc(Nc2cc(NC(=O)C3CC3)ncn2)c(=O)n2c1C(=O)NC21CCOCC1")
649

----------
testDetails: Pharmacokinetic study, 4ET-01-021 with IV and PO dosing
Format: in vivo, CD-1 male mice
setupConditions: male, CD-1, mouse, plasma; IV 1.0 mg/kg, mean of 3 animals; read-out: CLp
Procedure: 4ET-01-021 was dissolved in 10% dimethylacetamide (DMA)/90% propylene glycol (PG) for oral dosing and 10% DMI (dimethyl isosorbide)/15% EtOH (ethanol)/35% PG (propylene glycol)/40% NS (normal saline) for IV dosing. CD-1 male mice were dosed with 4ET-01-021 at 1.0 mg/kg (IV), 3.0 mg/kg (PO), or 10.0 mg/kg (PO). Plasma was collected at indicated timepoints and plasma concentration of 4ET-01-021 was measured using liquid chromatography-mass spectrometry/mass spectrometry (LC-MS/MS). […]
experimentalReadout: clearance (mL/min/kg)

>>> measuredresult("CCC1=CC2(CCC1)NC(=O)c1c(C)cc(Nc3cc(N)ncn3)c(=O)n12 (stereo not shown)")
6.97

----------
testDetails: Pharmacokinetic study, 4ET-03-009 at 10 mg/kg oral
Assay type: in vivo, CD-1 male mice
setupConditions: male, CD-1, mouse, plasma, po, 10 mg/kg, for the study
experimentalReadout: AUC(0-inf)

>>> measuredresult("Cc1cc(Nc2cc(NC(=O)C3CC3)ncn2)c(=O)n2c1C(=O)NC21CCOCC1 [Compound 4ET-03-009]")
"1620 ng·h/mL"

----------
testDetails: Pharmacokinetic study, 4ET-03-009 at 20 mg/kg oral
Format: in vivo, CD-1 male mice
setupConditions: male, CD-1, mouse, plasma, oral, 20 mg/kg, 8 hours, mean n = 3, read-out: Plasma Conc. Mean
experimentalReadout: concentration at 8 hours (µg/mL)

>>> measuredresult("Cc1cc(Nc2cc(NC(=O)C3CC3)ncn2)c(=O)n2c1C(=O)NC21CCOCC1")
0.0502

----------
testDetails: Pharmacokinetic study, 4ET-01-021 with IV and PO dosing
Type: in vivo, CD-1 male mice
setupConditions: male, CD-1, mouse, plasma, po; orally dosed at 3 mg/kg, mean of 3 animals
experimentalReadout: Cmax (ng/mL)

>>> measuredresult("CCC1=CC2(CCC1)NC(=O)c1c(C)cc(Nc3cc(N)ncn3)c(=O)n12 (stereo not shown)")
643

----------
System: MDCK-MDR1
testDetails: MDCK-MDR1 permeability (blood brain barrier permeability)
Format: in vitro ADME, Canine
setupConditions: Apical to basolateral transport, 5 μM, average of two experiments
Give condition met when the value for Papp A-B is at least 2 ×10⁻⁶ cm/s. Give condition not met when it is less.

>>> qualitativelabel("Cc1cc(Nc2cc(N)ncn2)c(=O)n2c1C(=O)NC21C[C@H]2COC[C@H]2C1 (single isomer, unassigned) [Compound 4ET-01-014A]")
"condition met"
>>> qualitativelabel("Cc1cc(Nc2cc(NC(=O)C3CC3)ncn2)c(=O)n2c1C(=O)NC21Cc2ccccc2[C@@H]1F (single isomer, unassigned) [Compound 4ET-03-052B]")
"condition met"
>>> qualitativelabel("Cc1cc(Nc2cc(NC(=O)C3CC3)ncn2)c(=O)n2c1C(=O)NC21C[C@H]2CNC[C@H]2C1 (single isomer, unassigned) [Compound 4ET-03-050B]")
"condition not met"
>>> qualitativelabel("Cc1cc(Nc2cc(N)ncn2)c(=O)n2c1C(=O)NC21C[C@H]2COC[C@H]2C1 (single isomer, unassigned) [Compound 4ET-01-014B]")
"condition met"

Data provenance: patent US20230286983A1
